Source listed as patent US10525110B2.

Assay: Phase I study of AP1903 in healthy volunteers
Assay type: in vivo
Conditions: male, human, plasma, intravenous, 0.4 mg/kg; reached within 15-30 min
Experimental: FIG. 49(A-B) provides the results of a dose-escalation study in normal male volunteers. FIG. 49A is a line graph and 49B is a chart. Healthy volunteers were infused with the indicated doses of AP1903 and at various time points, serum levels of AP1903 were measured using HPLC analysis. In a previous Phase I study of AP1903, 24 healthy volunteers were treated with single doses of AP1903 for Injection at dose levels of 0.01, 0.05, 0.1, 0.5 and 1.0 mg/kg infused IV over 2 hours. […]

{"COMPOUND": "CC[C@H](C(=O)N1CCCC[C@H]1C(=O)O[C@H](CCc1ccc(OC)c(OC)c1)c1cccc(OCC(=O)NCCNC(=O)COc2cccc([C@@H](CCc3ccc(OC)c(OC)c3)OC(=O)[C@@H]3CCCCN3C(=O)[C@@H](CC)c3cc(OC)c(OC)c(OC)c3)c2)c1)c1cc(OC)c(OC)c(OC)c1 (relative stereo)", "Cmax": "100 to 1000 nM"}
